- System: SARS-CoV-2 (USA_WA1/2020)
- TEST DESCRIPTION: Antiviral Activity from SARS-CoV-2 Infection (cytopathic effect, Cell Titer-Glo)
- Type: cell-based
- ASSAY CONTEXT: Severe acute respiratory syndrome coronavirus 2, Vero C1008, 72 h, VeroE6 cells enriched for hACE2, MOI 0.002, 3-day incubation; tested alone or with P-gp inhibitor CP-100356 2 μM (table does not say which); read-out: Geometric Mean EC50
Entries and their measured EC50 follow.
READOUT LABEL: EC50 (µM)

- COMPOUND: "CC[C@@H]([C@H](NS(=O)(=O)C(F)(F)F)C(=O)N1C[C@H]2[C@@H]([C@H]1C(=O)N[C@@H](C[C@@H]1CCNC1=O)C(=O)COc1ccc(F)cc1F)C2(C)C)C(F)(F)F [Example 70]"
  READOUT LABEL: "EC50"
  VALUE MODIFIER: "="
  TEST RESULT: 5.44
- COMPOUND: "CCc1c(OCC(=O)[C@H](C[C@@H]2CCNC2=O)NC(=O)[C@@H]2[C@@H]3[C@H](CN2C(=O)[C@@H](NC(=O)C(F)(F)F)C(C)C)C3(C)C)noc1C [Example 67]"
  READOUT LABEL: "EC50"
  VALUE MODIFIER: "="
  TEST RESULT: 1.75
- COMPOUND: "CC(C)(C)[C@H](NC(=O)C(F)(F)F)C(=O)N1C[C@H]2[C@@H]([C@H]1C(=O)N[C@@H](C[C@@H]1CCNC1=O)C(=O)COc1ccccc1)C2(C)C [Example 20]"
  READOUT LABEL: "EC50"
  VALUE MODIFIER: "="
  TEST RESULT: 0.0147
- COMPOUND: "Cc1ccc2c(OCC(=O)[C@H](C[C@@H]3CCNC3=O)NC(=O)[C@@H]3[C@@H]4[C@H](CN3C(=O)[C@@H](NC(=O)C(F)(F)F)C(C)C)C4(C)C)noc2c1 [Example 51]"
  READOUT LABEL: "EC50"
  VALUE MODIFIER: "="
  TEST RESULT: 0.0942
- COMPOUND: "CC(C)[C@H](NC(=O)C(F)(F)F)C(=O)N1C[C@H]2[C@@H]([C@H]1C(=O)N[C@@H](C[C@@H]1CCNC1=O)C(=O)COc1ccccc1)C2(C)C [Example 23]"
  READOUT LABEL: "EC50"
  VALUE MODIFIER: "="
  TEST RESULT: 0.032
- COMPOUND: "Cn1nc(C(F)(F)F)cc1OCC(=O)[C@H](C[C@@H]1CCNC1=O)NC(=O)[C@@H]1[C@@H]2[C@H](CN1C(=O)[C@@H](NS(C)(=O)=O)C(C)(C)C)C2(C)C [Example 7]"
  READOUT LABEL: "EC50"
  VALUE MODIFIER: "="
  TEST RESULT: 1.26
- COMPOUND: "CC(C)(C)[C@H](NS(=O)(=O)C(F)(F)F)C(=O)N1C[C@H]2[C@@H]([C@H]1C(=O)N[C@@H](C[C@@H]1CC(=O)NC1=O)C(=O)COc1ccc(F)cc1F)C2(C)C [Example 44]"
  READOUT LABEL: "EC50"
  VALUE MODIFIER: "="
  TEST RESULT: 0.408
- COMPOUND: "Cc1noc(OCC(=O)[C@H](C[C@@H]2CCNC2=O)NC(=O)[C@@H]2[C@@H]3[C@H](CN2C(=O)[C@@H](NC(=O)C(F)(F)F)C(C)C)C3(C)C)n1 [Example 76]"
  READOUT LABEL: "EC50"
  VALUE MODIFIER: ">"
  TEST RESULT: 100
- COMPOUND: "CC(C)[C@H](NS(=O)(=O)C(F)(F)F)C(=O)N1C[C@H]2[C@@H]([C@H]1C(=O)N[C@@H](C[C@@H]1CCNC1=O)C(=O)COc1cc(C(F)(F)F)nn1C)C2(C)C [Example 11]"
  READOUT LABEL: "EC50"
  VALUE MODIFIER: "="
  TEST RESULT: 2.03
- COMPOUND: "CCc1cc(OCC(=O)[C@H](C[C@@H]2CCNC2=O)NC(=O)[C@@H]2[C@@H]3[C@H](CN2C(=O)[C@@H](NC(=O)C(F)(F)F)C(C)C)C3(C)C)n(C)n1 [Example 45]"
  READOUT LABEL: "EC50"
  VALUE MODIFIER: "="
  TEST RESULT: 0.384
- COMPOUND: "CC(C)[C@H](NC(=O)C(F)(F)F)C(=O)N1C[C@H]2[C@@H]([C@H]1C(=O)N[C@@H](C[C@@H]1CCNC1=O)C(=O)COc1nc(C(F)(F)F)nn1C)C2(C)C [Example 55]"
  READOUT LABEL: "EC50"
  VALUE MODIFIER: "="
  TEST RESULT: 0.642
- COMPOUND: "CC(C)[C@H](NC(=O)C(F)(F)F)C(=O)N1C[C@H]2[C@@H]([C@H]1C(=O)NC(C[C@@H]1CCNC1=O)C(=O)COc1ccc(F)cc1F)C2(C)C (mixture of isomers) [Example 35]"
  READOUT LABEL: "EC50"
  VALUE MODIFIER: "="
  TEST RESULT: 0.0938
- COMPOUND: "CCn1nc(C)cc1OCC(=O)[C@H](C[C@@H]1CCNC1=O)NC(=O)[C@@H]1[C@@H]2[C@H](CN1C(=O)[C@@H](NC(=O)C(F)(F)F)C(C)C)C2(C)C [Example 43]"
  READOUT LABEL: "EC50"
  VALUE MODIFIER: "="
  TEST RESULT: 0.642
- COMPOUND: "CC(C)[C@H](NC(=O)C(F)(F)F)C(=O)N1C[C@H]2[C@@H]([C@H]1C(=O)N[C@@H](C[C@@H]1CCNC1=O)C(=O)COc1ncnn1-c1ccccc1)C2(C)C [Example 64]"
  READOUT LABEL: "EC50"
  VALUE MODIFIER: "="
  TEST RESULT: 5.36
- COMPOUND: "CC(C)[C@H](NC(=O)C(F)(F)F)C(=O)N1C[C@H]2[C@@H]([C@H]1C(=O)N[C@@H](C[C@@H]1CCNC1=O)C(=O)COc1cnsn1)C2(C)C [Example 62]"
  READOUT LABEL: "EC50"
  VALUE MODIFIER: "="
  TEST RESULT: 1.87
- COMPOUND: "CC(C)[C@H](NC(=O)C(F)(F)F)C(=O)N1C[C@H]2[C@@H]([C@H]1C(=O)N[C@@H](C[C@@H]1CC(=O)NC1=O)C(=O)COc1ccc(F)cc1F)C2(C)C [Example 42]"
  READOUT LABEL: "EC50"
  VALUE MODIFIER: "="
  TEST RESULT: 0.301
- COMPOUND: "Cn1nc(C(F)(F)F)cc1OCC(=O)[C@H](C[C@@H]1CCNC1=O)NC(=O)[C@@H]1[C@@H]2[C@H](CN1C(=O)[C@@H](NS(=O)(=O)C(F)(F)F)C(C)(C)C)C2(C)C [Example 6]"
  READOUT LABEL: "EC50"
  VALUE MODIFIER: "="
  TEST RESULT: 0.735
